- target desc: T1, human α-CGRP (Homo sapiens, UniProt P06881)
- T1 construct: 1-37 (WT); purchased GenScript Corporation or Global Peptide Services
- T1 sequence (P06881 83-119 limits assumed): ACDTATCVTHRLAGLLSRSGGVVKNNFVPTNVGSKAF
- protocol details: Biacore SPR affinity of Fab fragments to N-biotinylated human α-CGRP on SA chip
- Format: binding
- condition set: 37° C., screening mode except underlined values
Property: α-human koff; scope: individual molecules
Dear colleague, please return just the value in s⁻¹, with no unit written.

Examples from the recorded data:
INPUT: Output α-human koff of M30: G1 variant; L1 R28N T30G; H2 E54K A57E; HC-FW3 L99T A100V (antibody, V domains shown) VH: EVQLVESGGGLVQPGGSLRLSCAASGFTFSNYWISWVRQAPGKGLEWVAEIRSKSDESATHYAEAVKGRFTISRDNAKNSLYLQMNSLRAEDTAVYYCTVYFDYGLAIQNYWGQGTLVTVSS VL: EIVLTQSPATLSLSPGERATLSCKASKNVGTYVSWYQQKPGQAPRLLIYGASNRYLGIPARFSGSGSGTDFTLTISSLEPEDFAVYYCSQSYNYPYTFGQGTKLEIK
OUTPUT: 0.00059

INPUT: Output α-human koff of M31: G1 variant; L1 R28N T30G; H2 E54K A57G; HC-FW3 L99T A100V (antibody, V domains shown) VH: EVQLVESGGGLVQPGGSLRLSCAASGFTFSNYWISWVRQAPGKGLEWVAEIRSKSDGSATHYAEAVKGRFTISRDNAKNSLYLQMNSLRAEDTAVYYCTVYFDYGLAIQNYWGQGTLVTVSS VL: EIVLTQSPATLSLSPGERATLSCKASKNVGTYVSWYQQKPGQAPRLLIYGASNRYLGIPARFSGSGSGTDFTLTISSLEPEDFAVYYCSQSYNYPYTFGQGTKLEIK
OUTPUT: 0.000347

INPUT: Output α-human koff of M21: G1 variant; L1 R28W; HC-FW3 L99S (antibody, V domains shown) VH: EVQLVESGGGLVQPGGSLRLSCAASGFTFSNYWISWVRQAPGKGLEWVAEIRSESDASATHYAEAVKGRFTISRDNAKNSLYLQMNSLRAEDTAVYYCSAYFDYGLAIQNYWGQGTLVTVSS VL: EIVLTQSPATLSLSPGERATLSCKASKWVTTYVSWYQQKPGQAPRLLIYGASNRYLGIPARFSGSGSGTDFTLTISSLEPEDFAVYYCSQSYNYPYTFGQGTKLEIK
OUTPUT: 0.000142

Continuing:
INPUT: Output α-human koff of M55: G1 variant; L1 R28N T30A; L2 L56S; H2 E54K A57N S58E E64D; HC-FW3 L99T A100V (antibody, V domains shown) VH: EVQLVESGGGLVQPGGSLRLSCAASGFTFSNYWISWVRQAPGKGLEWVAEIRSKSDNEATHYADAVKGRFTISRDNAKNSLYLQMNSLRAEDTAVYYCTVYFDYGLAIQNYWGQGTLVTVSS VL: EIVLTQSPATLSLSPGERATLSCKASKNVATYVSWYQQKPGQAPRLLIYGASNRYSGIPARFSGSGSGTDFTLTISSLEPEDFAVYYCSQSYNYPYTFGQGTKLEIK
OUTPUT: 0.000478

INPUT: Output α-human koff of M53: G1 variant; L1 R28N; L2 L561; H2 E54K A57N S58G; HC-FW3 L99T A100V (antibody, V domains shown) VH: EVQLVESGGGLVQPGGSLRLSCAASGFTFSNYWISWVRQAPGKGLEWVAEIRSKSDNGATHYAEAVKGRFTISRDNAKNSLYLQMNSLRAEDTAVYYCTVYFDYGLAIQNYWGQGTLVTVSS VL: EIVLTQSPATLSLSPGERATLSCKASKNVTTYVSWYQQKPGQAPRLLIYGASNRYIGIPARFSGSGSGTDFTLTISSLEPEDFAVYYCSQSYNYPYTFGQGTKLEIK
OUTPUT: 0.000374

// data source = patent US20190071490A1
